Protein target, amino acids: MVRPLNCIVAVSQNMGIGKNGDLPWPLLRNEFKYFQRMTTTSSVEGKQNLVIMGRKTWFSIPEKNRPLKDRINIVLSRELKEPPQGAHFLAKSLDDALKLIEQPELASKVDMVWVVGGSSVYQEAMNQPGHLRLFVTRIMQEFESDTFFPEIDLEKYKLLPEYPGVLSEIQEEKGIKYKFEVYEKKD
measuredParameter: IC50 (µM)
Write the answer as a number in µM, unit excluded.

Exercise: Any idea what its IC50 is? The molecule is CN(Cc1ccc2nc(N)nc(N)c2n1)c1ccc(Cl)c(Cl)c1
Solution: 0.032

----------
Target sequence: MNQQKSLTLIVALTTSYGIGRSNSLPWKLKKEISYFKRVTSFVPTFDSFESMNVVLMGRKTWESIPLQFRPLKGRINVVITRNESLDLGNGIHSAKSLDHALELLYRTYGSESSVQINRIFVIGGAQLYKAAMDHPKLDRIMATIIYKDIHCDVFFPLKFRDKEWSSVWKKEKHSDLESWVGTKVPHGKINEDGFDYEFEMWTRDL
measuredParameter: IC50 (nM)
Write the answer as a number in nM, unit excluded.

Exercise: Any idea what its IC50 is? The compound is CN(Cc1ccc2nc(N)nc(N)c2n1)c1ccc(Cl)cc1
Solution: 62

----------
# assayedSystem: Bifunctional dihydrofolate reductase-thymidylate synthase (Toxoplasma gondii)
# Sequence (Q07422 whole entry): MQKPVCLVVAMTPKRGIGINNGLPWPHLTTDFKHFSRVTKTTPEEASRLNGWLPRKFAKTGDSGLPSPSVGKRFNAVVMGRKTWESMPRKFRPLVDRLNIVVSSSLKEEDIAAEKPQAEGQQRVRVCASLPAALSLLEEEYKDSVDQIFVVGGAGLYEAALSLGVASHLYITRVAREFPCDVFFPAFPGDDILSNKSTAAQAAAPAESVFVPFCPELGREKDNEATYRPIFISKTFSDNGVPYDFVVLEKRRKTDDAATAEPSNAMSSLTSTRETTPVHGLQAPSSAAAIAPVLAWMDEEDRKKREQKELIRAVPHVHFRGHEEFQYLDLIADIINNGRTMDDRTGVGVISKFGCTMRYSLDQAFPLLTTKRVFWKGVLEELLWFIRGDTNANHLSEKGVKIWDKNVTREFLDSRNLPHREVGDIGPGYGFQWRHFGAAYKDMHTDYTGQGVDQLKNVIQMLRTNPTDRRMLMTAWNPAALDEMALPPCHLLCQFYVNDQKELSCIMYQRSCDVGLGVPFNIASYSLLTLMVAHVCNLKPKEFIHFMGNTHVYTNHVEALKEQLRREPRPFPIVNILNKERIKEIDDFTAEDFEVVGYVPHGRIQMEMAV
# testDetails: Concentration inhibiting Toxoplasma gondii dihydrofolate reductase
measuredParameter: pIC50
Interpret pIC50 as the negative base-10 log of the concentration measured in mol/L.

Exercise: Any idea what its pIC50 is? The molecule is COc1ccc(OC)c(NCc2ccc3nc(N)nc(N)c3n2)c1
Solution: 7.00

----------
# assayedSystem: Bifunctional dihydrofolate reductase-thymidylate synthase (Toxoplasma gondii)
# testDetails: Concentration inhibiting Toxoplasma gondii dihydrofolate reductase
Each entry below lists one item and its recorded pIC50 value.
Interpret pIC50 as the negative base-10 log of the concentration measured in mol/L.

CN(Cc1ccc2nc(N)nc(N)c2n1)c1cccc(Cl)c1 = 7.70
CN(Cc1ccc2nc(N)nc(N)c2n1)c1ccc(Cl)c(Cl)c1 = 7.01
COc1cc(NCc2ccc3nc(N)nc(N)c3n2)cc(OC)c1OC = 7.09
CN(Cc1ccc2nc(N)nc(N)c2n1)c1ccc(Cl)cc1 = 7.82

Here is another compound to look at.
Exercise: Entry COc1cc(N(C)Cc2ccc3nc(N)nc(N)c3n2)cc(OC)c1OC , system Bifunctional dihydrofolate reductase-thymidylate synthase (Toxoplasma gondii): what pIC50 was measured?
Solution: 8.33

All figures here come from ChEMBL document CHEMBL1128717.
